system: Caviid betaherpesvirus 2; test: Antiviral activity against guinea pig CMV; format: functional, organism-based
Calls of active or inactive are those of the source. No cut-off for these calls is given here.

Compound: Cc1nc(N(C)Cc2ccccc2)nc(-n2ccnc2C)c1[N+](=O)[O-]
Activity: inactive
--
Compound: Cc1nccn1-c1nc(N(C)Cc2ccccc2)nc(Cl)c1[N+](=O)[O-]
Activity: inactive
--
Compound: CCc1nccn1-c1nc(N(C)Cc2ccccc2)nc(C)c1[N+](=O)[O-]
Activity: inactive
--
Compound: Cc1nc(N(C)Cc2ccccc2)nc(-n2ccnc2C)c1C#N
Activity: inactive
--
Compound: Cc1nccn1-c1nc(N(C)Cc2ccccc2)nc(C(C)C)c1[N+](=O)[O-]
Activity: inactive
--
Compound: Cc1nc(N(C)Cc2ccccc2)nc(-n2ccnc2C)n1
Activity: inactive
--
Compound: Cc1nc(N(C)Cc2ccccc2)nc(-n2ccnc2)c1[N+](=O)[O-]
Activity: inactive
--
Compound: Cc1nc(N(C)c2ccccc2)nc(-n2ccnc2C)c1[N+](=O)[O-]
Activity: inactive
--
Compound: CCc1nc(N(C)Cc2ccccc2)nc(-n2ccnc2C)c1[N+](=O)[O-]
Activity: inactive
--
Compound: Cc1nc(N(C)Cc2ccccc2)nc(-n2c(C)nc3ccccc32)c1[N+](=O)[O-]
Activity: inactive
--
Compound: Cc1nccn1-c1nc(N(C)Cc2ccccc2)ncc1[N+](=O)[O-]
Activity: inactive
--
Compound: Cc1nc(N(C)Cc2ccccc2)nc(-n2ccnc2-c2ccccc2)c1[N+](=O)[O-]
Activity: inactive
--
Compound: Cc1nccn1-c1nc(N(C)Cc2ccccc2)nc(CCN(C)C)c1[N+](=O)[O-]
Activity: inactive
--
Compound: CCCCN(C)c1nc(C)c([N+](=O)[O-])c(-n2ccnc2C)n1
Activity: inactive
--
Compound: Cc1nc(N2CCC(C)CC2)nc(-n2ccnc2C)c1[N+](=O)[O-]
Activity: inactive
--
Compound: Cc1nc(NC2CCc3ccccc32)nc(-n2ccnc2C)c1[N+](=O)[O-] (stereo unspecified)
Activity: inactive
--
Compound: Cc1nccn1-c1nc(N(C)Cc2ccccc2)nc2c1S(=O)(=O)CC2
Activity: inactive
--
Compound: Cc1cc(-n2ccnc2C)nc(N(C)Cc2ccccc2)n1
Activity: inactive
--
Compound: CCOc1nc(C)c([N+](=O)[O-])c(-n2ccnc2C)n1
Activity: inactive
--
Compound: Cc1cn(-c2nc(N(C)Cc3ccccc3)nc(C)c2[N+](=O)[O-])cn1
Activity: inactive
--
Compound: Cc1nc(N(C)Cc2ccccc2)nc(-n2ccnc2C(C)C)c1[N+](=O)[O-]
Activity: inactive
